targetOrSystem: OsSMF1 (Oryza sativa, UniProt Q6ZLB0 1-436)
Sequence: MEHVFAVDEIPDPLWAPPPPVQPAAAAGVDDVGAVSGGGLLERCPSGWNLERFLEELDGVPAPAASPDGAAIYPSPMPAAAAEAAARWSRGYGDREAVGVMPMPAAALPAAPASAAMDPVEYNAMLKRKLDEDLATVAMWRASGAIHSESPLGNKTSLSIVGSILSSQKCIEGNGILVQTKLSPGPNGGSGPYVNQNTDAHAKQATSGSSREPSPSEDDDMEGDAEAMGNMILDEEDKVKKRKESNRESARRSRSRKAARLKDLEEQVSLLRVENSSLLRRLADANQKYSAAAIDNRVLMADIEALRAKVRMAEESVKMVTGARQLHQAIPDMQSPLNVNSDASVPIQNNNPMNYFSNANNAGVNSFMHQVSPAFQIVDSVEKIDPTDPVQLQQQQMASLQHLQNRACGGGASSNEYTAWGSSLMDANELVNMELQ
procedureDetails: protein-binding microarray (RPBM); PBS, 2% BSA, 51.3 ng/ul salmon testes DNA, 50 uM zinc acetate, 200 nM TF, 25 C, 1 h; high values mean tight binding
conditionDescription: protein: recombinant; tags: N-terminal polyhistidine and DsRed monomer fusion (pET32a); chain copies: 2; label: CyDye5-dUTP incorporated in the synthesized complementary strand; 3' TTTTT single-stranded linker to array surface; dsDNA, one strand shown
Whole data set: some 39,000 sequences, median “fluorescence intensity (a.u.)” near 4,300, cut for the highest 2% near 39,000. The list comes from a sample in which the highest values are over-represented; it also holds close analogues and randomly drawn sequences.
propertyLabel: binding signal

Answered cases to consult:
{"columns": ["residues", "binding signal"],
 "data": [
  ["TTTCAGTAGCGTCGGCTGCTCTATCTACTTGCATTGCCTGCGGAGTCACCTAGTGCAG", "41000 fluorescence intensity (a.u.)"],
  ["CTGTGAGTTCGTTGTCTGAGTGAGAGCTGGACGTGCTGCACGGAGTCACCTAGTGCAG", "33000 fluorescence intensity (a.u.)"],
  ["CCACCACGCTTTCCCCGCGCGATGACTCCGCCGCCGCGCCCGGAGTCACCTAGTGCAG", "5400 fluorescence intensity (a.u.)"],
  ["GTGTGCTCTTGCATACATACTTGGGCTTATCTAGCTGCGTCGGAGTCACCTAGTGCAG", "5510 fluorescence intensity (a.u.)"]
]}

Below: the item to evaluate.
Query: binding signal; subject: GCCCAAAGAAAGAAGGAGGTGGACACGTGGGAGATCTGCGCGGAGTCACCTAGTGCAG
Result: 11200 fluorescence intensity (a.u.)
